Biological target: P2Y purinoceptor 12 (Homo sapiens)
Assay: Displacement of [33P]ADP from human recombinant P2Y12 receptor expressed in CHO cells
Measured quantity: pKi
# pKi: negative log10 of molar concentration; output just the value

Enquiry: Any idea what pKi was measured for CCCCCCOC(=O)N1CCN(C(=O)[C@H](CCC(=O)O)NC(=O)c2cc(OC3CCNCC3)cc(-c3ccccc3)n2)CC1 ?
Return: 8.03

Enquiry: Any idea what pKi was measured for CCCCOC(=O)N1CCN(C(=O)[C@H](CCC(=O)O)NC(=O)c2cc(OCC3CCN(C(=O)OCC)CC3)cc(-c3ccccc3)n2)CC1 ?
Return: 8.12

====

Target: P2Y purinoceptor 12 (Homo sapiens)
Test: Displacement of [33P]ADP from human recombinant P2Y12 receptor expressed in CHO cells
I'd appreciate it if you marked entries met when Ki is lower than 30 nM and not met when it is not.

Worked set:
Compound	Assigned label
CCCCOC(=O)N1CCN(C(=O)[C@H](CCC(=O)O)NC(=O)c2cc(OCCCC)cc(-c3ccccc3)n2)CC1	not met
CCCCCOC(=O)N1CCN(C(=O)[C@H](CCC(=O)O)NC(=O)c2cc(OC(=O)N(C)C3CCOC3)cc(-c3ccccc3)n2)CC1 (stereo partly specified)	met
CCCCOC(=O)N1CCN(C(=O)[C@H](CCC(=O)O)NC(=O)c2cc(N3CCC(N(C)C)CC3)cc(-c3ccccc3)n2)CC1	met

Switching to the query record.
Enquiry: Criterion: Ki strictly below 30 nM. Is it met by CCCCCOC(=O)N1CCN(C(=O)[C@H](CCC(=O)O)NC(=O)c2cc(OCCO)cc(-c3ccccc3)n2)CC1 ?
Return: not met

====

Readings of Ki for the listed compounds
Biological target: P2Y purinoceptor 12 (Homo sapiens, UniProt Q9H244)
Sequence (Q9H244 whole entry): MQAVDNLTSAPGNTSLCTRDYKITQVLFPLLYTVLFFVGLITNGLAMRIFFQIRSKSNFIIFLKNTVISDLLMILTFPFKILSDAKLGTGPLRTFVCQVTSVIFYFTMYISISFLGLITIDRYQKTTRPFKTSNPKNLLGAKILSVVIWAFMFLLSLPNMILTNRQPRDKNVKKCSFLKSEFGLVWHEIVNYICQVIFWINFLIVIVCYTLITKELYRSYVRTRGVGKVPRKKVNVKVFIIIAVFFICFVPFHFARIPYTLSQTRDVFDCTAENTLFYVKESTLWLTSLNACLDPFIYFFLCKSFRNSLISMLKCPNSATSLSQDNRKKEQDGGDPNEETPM
Assay: Displacement of [33P]ADP from human recombinant P2Y12 receptor expressed in CHO cells
Respond with the bare value in nM.

Example cases with answers are listed next.
Compound	Output unit	Ki
CCCCCOC(=O)N1CCN(C(=O)[C@H](CCC(=O)O)NC(=O)c2cc(C(=O)N(C)C)cc(-c3ccccc3)n2)CC1	nM	2.4
CCCCOC(=O)N1CCN(C(=O)[C@H](CCC(=O)O)NC(=O)c2cc(OC3CCCNC3)cc(-c3ccccc3)n2)CC1 (stereo partly drawn)	nM	6.9
CCCCOC(=O)N1CCN(C(=O)[C@H](CCC(=O)O)NC(=O)c2cc(OC3CCN(S(=O)(=O)CC)CC3)cc(-c3ccccc3)n2)CC1	nM	7.6
CC(C)CCOC(=O)N1CCN(C(=O)[C@H](CCC(=O)O)NC(=O)c2cccc(-c3ccccc3)n2)CC1	nM	33

Enquiry: Any idea what Ki was measured for CCCCCOC(=O)N1CCN(C(=O)[C@H](CCC(=O)O)NC(=O)c2cc(OC(=O)N(C)C)cc(-c3ccccc3)n2)CC1 ?
Return: 5.5

Enquiry: Any idea what Ki was measured for CCCCCNC(=S)N1CCN(C(=O)[C@H](CCC(=O)O)NC(=O)c2cccc(-c3ccccc3)n2)CC1 ?
Return: 6

Enquiry: Any idea what Ki was measured for CCCCCOC(=O)N1CCN(C(=O)[C@H](CCC(=O)O)NC(=O)c2cc(CCCOC)cc(-c3ccccc3)n2)CC1 ?
Return: 8.4

Enquiry: Any idea what Ki was measured for CCCCOC(=O)N1CCN(C(=O)[C@H](CCC(=O)O)NC(=O)c2cc(OCCCO)cc(-c3ccccc3)n2)CC1 ?
Return: 6.9

====

Target: P2Y purinoceptor 12 (Homo sapiens, UniProt Q9H244)
Experiment: Displacement of [33P]ADP from human recombinant P2Y12 receptor expressed in CHO cells
pKi: −log10 of the molar value.
Class true: pKi at least 7. Class false: pKi below 7.

Worked set:
Smiles repr	Assigned label
CCCCCOC(=O)N1CCN(C(=O)[C@H](CCC(=O)O)NC(=O)c2cc(OC(=O)N3CC[C@H](OC)C3)cc(-c3ccccc3)n2)CC1	true
CCCCCOC(=O)N1CCN(C(=O)[C@H](CCC(=O)O)NC(=O)c2cc(NC(=O)CNC)cc(-c3ccccc3)n2)CC1	true
CCCCCOC(=O)N1CCN(C(=O)[C@H](CCC(=O)O)NC(=O)c2cc(NC(=O)COC)cc(-c3ccccc3)n2)CC1	true
CCCCCOC(=O)N1CCN(C(=O)[C@H](CCC(=O)O)NC(=O)c2cc(NC(=O)NC(C)C)cc(-c3ccccc3)n2)CC1	true
CCCNC(=S)N1CCN(C(=O)[C@H](CCC(=O)O)NC(=O)c2cccc(-c3ccccc3)n2)CC1	true
CCCCOC(=O)N1CCN(C(=O)[C@H](CCC(=O)O)NC(=O)c2cc(OC(=O)N(C)CC3CCOCC3)cc(-c3ccccc3)n2)CC1	true
CCCCOC(=O)N1CCN(C(=O)[C@H](CCC(=O)O)NC(=O)c2cc(OCC3CCN(C(=O)COC)CC3)cc(-c3ccccc3)n2)CC1	true
CCCCCCOC(=O)N1CCN(C(=O)[C@H](CCC(=O)O)NC(=O)c2cc(OCCN)cc(-c3ccccc3)n2)CC1	true
CCOC(=O)N1CCN(C(=O)[C@H](CCC(=O)O)NC(=O)c2nccc(-c3ccccc3)n2)CC1	false
CCCCCOC(=O)N1CCN(C(=O)[C@H](CCC(=O)O)NC(=O)c2cc(OC(=O)N3CCOCC3)cc(-c3ccccc3)n2)CC1	true

Enquiry: Does the reported pKi for CC(=O)N1CCN(C(=O)[C@H](CCC(=O)O)NC(=O)c2cccc(-c3ccccc3)n2)CC1 fall at or above the 7 mark?
Return: false

Enquiry: Does the reported pKi for O=C(O)CC[C@H](NC(=O)c1cccc(-c2ccccc2)n1)C(=O)N1CCN(C(=O)OCc2ccccc2)CC1 fall at or above the 7 mark?
Return: false

====

Experiment: Antiplatelet aggregation activity against adenosine diphosphate-induced human platelet rich plasma assessed as inhibition of platelet aggregation by turbidimetric method
Format: functional
Settings: Homo sapiens, Platelet, Plasma
Readings of IC50 for the listed molecules
Respond with the bare value in µM.

Example cases with answers are listed next.
Molecule	IC50, µM
CCCCOC(=O)N1CCN(C(=O)[C@H](CCC(=O)O)NC(=O)c2cc(OCC3CCNCC3)cc(-c3ccccc3)n2)CC1	0.21
CCCCOC(=O)N1CCN(C(=O)[C@H](CCC(=O)O)NC(=O)c2cc(OC3CCN(C(=O)COC)CC3)cc(-c3ccccc3)n2)CC1	0.52
CCCCOC(=O)N1CCN(C(=O)[C@H](CCC(=O)O)NC(=O)c2cc(OCC3CCCNC3)cc(-c3ccccc3)n2)CC1 (stereo partly drawn)	1.2

Now consider the entry below.
Enquiry: Any idea what IC50 was measured for CCOC(=O)N1CCN(C(=O)[C@H](CCC(=O)O)NC(=O)c2nccc(-c3ccccc3)n2)CC1 ?
Return: 74

====

Test: Antiplatelet aggregation activity against adenosine diphosphate-induced human platelet rich plasma assessed as inhibition of platelet aggregation by turbidimetric method
Assay type: functional
Conditions: Homo sapiens, Platelet, Plasma
Measured quantity: pIC50
# pIC50: negative log10 of molar concentration; output just the value

Example cases with answers are listed next.
Smiles repr	pIC50
CCCCCCOC(=O)N1CCN(C(=O)[C@H](CCC(=O)O)NC(=O)c2cc(OCCCC)cc(-c3ccccc3)n2)CC1	4.01
CCCCOC(=O)N1CCN(C(=O)[C@H](CCC(=O)O)NC(=O)c2cc(OC(=O)N(C)C)cc(-c3ccccc3)n2)CC1	5.96
CCCCOC(=O)N1CCN(C(=O)[C@H](CCC(=O)O)NC(=O)c2cc(OC(=O)N3CCOCC3)cc(-c3ccccc3)n2)CC1	6.12
CCCCCOC(=O)N1CCN(C(=O)[C@H](CCC(=O)O)NC(=O)c2cc(OC(=O)N3CCOCC3)cc(-c3ccccc3)n2)CC1	5.77

Enquiry: Any idea what pIC50 was measured for CCOC(=O)N1CCN(C(=O)[C@H](CCC(=O)O)NC(=O)c2cc(OCc3ccccc3)cc(-c3ccccc3)n2)CC1 ?
Return: 4.51

Enquiry: Any idea what pIC50 was measured for CCCCOC(=O)N1CCN(C(=O)[C@H](CCC(=O)O)NC(=O)c2cc(OCCOC)cc(-c3ccccc3)n2)CC1 ?
Return: 5.35

Enquiry: Any idea what pIC50 was measured for CCCCOC(=O)N1CCN(C(=O)[C@H](CCC(=O)O)NC(=O)c2cc(OC3CCOCC3)cc(-c3ccccc3)n2)CC1 ?
Return: 5.39

Enquiry: Any idea what pIC50 was measured for CCOC(=O)N1CCN(C(=O)[C@H](CCC(=O)O)NC(=O)c2cc(N3CCC(O)CC3)cc(-c3ccccc3)n2)CC1 ?
Return: 5.00

Enquiry: Any idea what pIC50 was measured for CCCCOC(=O)N1CCN(C(=O)[C@H](CCC(=O)O)NC(=O)c2cc(OCC3CCN(C(=O)COC)CC3)cc(-c3ccccc3)n2)CC1 ?
Return: 5.82

Enquiry: Any idea what pIC50 was measured for CCCCCOC(=O)N1CCN(C(=O)[C@H](CCC(=O)O)NC(=O)c2cc(OCC3CCN(C(=O)COC)CC3)cc(-c3ccccc3)n2)CC1 ?
Return: 5.89

Enquiry: Any idea what pIC50 was measured for CCCCOC(=O)N1CCN(C(=O)[C@H](CCC(=O)O)NC(=O)c2cc(OCC3CCN(C(C)=O)CC3)cc(-c3ccccc3)n2)CC1 ?
Return: 5.68

Enquiry: Any idea what pIC50 was measured for CCOC(=O)N1CCN(C(=O)[C@H](CCC(=O)O)NC(=O)c2cc(OC)cc(-c3ccccc3)n2)CC1 ?
Return: 4.41
